- SYSTEM NAME: UniProt:P22681
- Sequence (P22681 47-435): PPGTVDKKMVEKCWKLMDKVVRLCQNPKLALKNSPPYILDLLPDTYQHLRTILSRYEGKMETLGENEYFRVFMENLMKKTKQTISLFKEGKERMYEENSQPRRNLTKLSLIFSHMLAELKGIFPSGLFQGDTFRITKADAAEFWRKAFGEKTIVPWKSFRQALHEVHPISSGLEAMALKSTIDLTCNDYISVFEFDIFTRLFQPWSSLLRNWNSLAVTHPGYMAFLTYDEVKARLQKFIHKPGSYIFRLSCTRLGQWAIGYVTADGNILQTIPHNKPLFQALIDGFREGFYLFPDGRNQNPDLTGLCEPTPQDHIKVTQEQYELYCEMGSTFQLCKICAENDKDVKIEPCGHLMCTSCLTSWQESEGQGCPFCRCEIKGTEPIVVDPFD
- TEST DESCRIPTION: C-Cbl LCK Ub TR-FRET assay (c-cbl Lck HTRF)
- Assay type: biochemical
- CONDITIONS: C-cbl Lck HTRF IC50 relative to Cbl-b Lck HTRF IC50
PARAMETER: (fold-selectivity) (x)
Number in x, nothing else.

The cases that follow already have their (fold-selectivity) on record.
>  <ENTRY SMILES>
COCC1(O)CN(Cc2cc3c(c(C(F)(F)F)c2)CN(c2cccc(C4([C@@H](F)c5nncn5C)COC4)c2)C3=O)C1

>  <SYSTEM NAME>
UniProt:P22681

>  <VALUE UNITS>
x

>  <QUANTITATIVE RESULT>
1.5

$$$$
>  <ENTRY SMILES>
Cn1cnnc1CC1(c2cccc(N3Cc4c(cc(CN5CC[C@H](CCl)C5)cc4C(F)(F)F)C3=O)c2)COC1

>  <SYSTEM NAME>
UniProt:P22681

>  <VALUE UNITS>
x

>  <QUANTITATIVE RESULT>
1.4

$$$$
>  <ENTRY SMILES>
Cn1cnnc1[C@H](F)C1(c2cccc(N3Cc4c(cc([C@H](N)C5CC5)cc4C(F)(F)F)C3=O)c2)COC1

>  <SYSTEM NAME>
UniProt:P22681

>  <VALUE UNITS>
x

>  <QUANTITATIVE RESULT>
1.6

$$$$

Would you kindly share the measured (fold-selectivity) for `C[C@H]1CN(C)CCN1Cc1cc2c(c(C(F)(F)F)c1)CN(c1cccc(C3(Cc4nncn4C)CC(F)(F)C3)c1)C2=O` ?
0.96
